assay-system: T. gondii ME49Luc in IFN-y HeLa, luciferase, 72 h
assay-comment: T. gondii growth inhibition with IFN-gamma, dose response, cell-based, ME49Luc, HeLa, luciferase, 72 h (AID 1259418)
Results filed as inconclusive are left out. Active and inactive are the calls of the source.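 How the source made its calls: active means fitted half-maximal concentration of signal decrease at or below twice the sample's top tested concentration; inconclusive means flat curve between -70 and -30 percent, or poor fit; inactive means flat within 30 percent, signal rise, or potency above limit.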
Please answer using one outcome listed in active, inactive

Query: Could you check what this test reported for "COCC(=O)N1CCC2(CC1)CN(Cc1nccs1)CCO2" ?
Response: active

Query: Could you check what this test reported for "CCc1nc(OCC(=O)N(C)c2ccccc2)c2ccccc2n1" ?
Response: active

Query: Could you check what this test reported for "O=S(=O)(c1ccc(Cl)s1)N1CCC2(CC1)NCCN=C2NCc1ccccc1F" ?
Response: active

Query: Could you check what this test reported for "COc1ccc(-c2nc(NC(C)C)c3ccccc3n2)cc1" ?
Response: inactive

Query: Could you check what this test reported for CCCCNC(=O)CCC1N=C2c3ccccc3N=C(SCc3ccc(C)cc3C)N2C1=O (stereo unspecified) ?
Response: active

Query: Could you check what this test reported for "Cc1ccc(S(=O)(=O)N2CCC3(CC2)NCCN=C3NCc2ccc3c(c2)OCO3)cc1C" ?
Response: active
